Origin of the recorded values: patent US20260356851A1

measured_on: pERK1/2 (Thr202/Tyr204), PANC-1 (KRAS G121D) (Homo sapiens, UniProt P01116, G12D)
Construct: pERK1/2 HTRF read-out
Sequence (P01116 1-188 isoform P01116-2 G12D): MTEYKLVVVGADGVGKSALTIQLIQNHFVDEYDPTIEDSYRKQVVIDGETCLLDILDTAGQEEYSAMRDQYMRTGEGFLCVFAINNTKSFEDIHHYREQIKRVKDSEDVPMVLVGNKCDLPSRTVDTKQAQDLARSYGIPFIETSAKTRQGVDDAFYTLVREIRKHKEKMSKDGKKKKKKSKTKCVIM
method: Assay of intracellular pERK1/2 (Thr202/Tyr204) phosphorylation in PANC-1 cells (KRAS G12D)
Type: cell-based
run_conditions: pERK1/2, 2 days, read-out: PANC-1 (KRAS G12D) IC50
# key: entry, value: IC50

# example entries with known answers
>  <compound>
Cc1c(F)c(N)cc(-c2nc3c4c(nc(OC[C@@H]5C[C@@H](F)CN5C)nc4c2F)N(C(C)c2cccnc2N)[C@@H](C)CO3)c1C(F)(F)F (single isomer, unassigned) [Compound 277]

>  <IC50>
> 100 nM

$$$$
>  <compound>
Cc1c(F)c(N)cc(-c2nc3c4c(nc(OC[C@@]56CCCN5C[C@H](F)C6)nc4c2F)N(C(C)c2cccnc2N)C[C@@H](C)O3)c1C(F)(F)F (single isomer, unassigned) [Compound 247]

>  <IC50>
> 100 nM

$$$$

[Q] Under pERK1/2 (Thr202/Tyr204), PANC-1 (KRAS G121D) (Homo sapiens, UniProt P01116, G12D): IC50 value of COc1cc2cn[nH]c2cc1-c1nc2c3c(nc(OC[C@@]45CCCN4C[C@H](F)C5)nc3c1F)N(C(C)c1cccnc1N)[C@@H](C)CO2 (stereo partly drawn) ?
[A] > 100 nM

###

measured_on: pERK1/2 (Thr202/Tyr204), PANC-1 (KRAS G121D) (Homo sapiens, UniProt P01116, G12D)
Construct: pERK1/2 HTRF read-out
method: Assay of intracellular pERK1/2 (Thr202/Tyr204) phosphorylation in PANC-1 cells (KRAS G12D)
Type: cell-based
run_conditions: pERK1/2, 2 days, read-out: PANC-1 (KRAS G12D) IC50
pIC50: −log10 of the molar value.
measure_name: pIC50

>  <molecule>
C[C@H](c1cccnc1N)N1CCOc2nc(-c3c(C(F)(F)F)ccc4[nH]ncc34)c(F)c3nc(OC[C@@H]4CCN4CC(F)F)nc1c23 (single isomer, unassigned)

>  <obs_value>
< 6.00

$$$$
>  <molecule>
Cc1cc(N)cc(-c2nc3c4c(nc(N5CCC[C@H]5CO)nc4c2F)N(C(C)c2cccnc2N)CCO3)c1C(F)(F)F (single isomer, unassigned)

>  <obs_value>
< 7.00

$$$$

[Q] Would you kindly share the measured pIC50 for CC(c1cccnc1N)N1CCOc2nc(-c3cc(O)cc(Cl)c3C3CC3)c(F)c3nc(OC[C@@H]4CCCCN4C)nc1c23 (stereo partly drawn) ?
[A] < 7.00

###

measured_on: pERK1/2 (Thr202/Tyr204), PANC-1 (KRAS G121D) (Homo sapiens, UniProt P01116, G12D)
Construct: pERK1/2 HTRF read-out
method: Assay of intracellular pERK1/2 (Thr202/Tyr204) phosphorylation in PANC-1 cells (KRAS G12D)
Format: cell-based
run_conditions: pERK1/2, 2 days, read-out: PANC-1 (KRAS G12D) IC50
# key: entry, value: IC50

# example entries with known answers
>  <compound>
Cc1cc(N)cc(-c2nc3c4c(nc(OC[C@]56CCCN5[C@@H](CO)CC6)nc4c2F)N(C(C)c2cccnc2N)CCO3)c1C(F)(F)F (single isomer, unassigned)

>  <obs_value>
> 100 nM

$$$$
>  <compound>
Cc1cc2[nH]ncc2c(-c2nc3c4c(nc(OC[C@@]56CCCN5C[C@H](F)C6)nc4c2F)N(C(C)c2cccnc2N)[C@H]2CCC[C@@H]2O3)c1C(F)(F)F (stereo partly drawn)

>  <obs_value>
> 100 nM

$$$$
>  <compound>
Cc1cc(N)cc(-c2nc3c4c(nc(OC[C@@H]5CCCN5CCO)nc4c2F)N(C(C)c2cccnc2N)CCO3)c1C(F)(F)F (stereo partly drawn)

>  <obs_value>
> 100 nM

$$$$
>  <compound>
[2H]C1([2H])CC[C@@]2(COc3nc4c5c(nc(-c6cc(N)c(F)c(Cl)c6C(F)(F)F)c(F)c5n3)OC([2H])([2H])C([2H])([2H])N4C(C)c3ccc[n+]([O-])c3N)C[C@@H](F)CN12 (stereo partly drawn)

>  <obs_value>
> 100 nM

$$$$

[Q] Would you kindly share the measured IC50 for CC(c1cccnc1N)N1CCOc2nc(-c3cc(O)cc(F)c3C3CC3)c(F)c3nc(OC[C@@H]4CCCN4C)nc1c23 (single isomer, unassigned) [Compound 34] ?
[A] > 1000 nM

[Q] Would you kindly share the measured IC50 for CCC(c1cccnc1N)N1CCOc2nc(-c3cc(N)c(F)c(Cl)c3C(F)(F)F)c(F)c3nc(OC[C@@]45CCCN4C[C@H](F)C5)nc1c23 (single isomer, unassigned) [Compound 215] ?
[A] > 100 nM
